- STUDY SYSTEM: BACE1 (Homo sapiens (Human), UniProt P56817)
- Sequence (P56817 46-501): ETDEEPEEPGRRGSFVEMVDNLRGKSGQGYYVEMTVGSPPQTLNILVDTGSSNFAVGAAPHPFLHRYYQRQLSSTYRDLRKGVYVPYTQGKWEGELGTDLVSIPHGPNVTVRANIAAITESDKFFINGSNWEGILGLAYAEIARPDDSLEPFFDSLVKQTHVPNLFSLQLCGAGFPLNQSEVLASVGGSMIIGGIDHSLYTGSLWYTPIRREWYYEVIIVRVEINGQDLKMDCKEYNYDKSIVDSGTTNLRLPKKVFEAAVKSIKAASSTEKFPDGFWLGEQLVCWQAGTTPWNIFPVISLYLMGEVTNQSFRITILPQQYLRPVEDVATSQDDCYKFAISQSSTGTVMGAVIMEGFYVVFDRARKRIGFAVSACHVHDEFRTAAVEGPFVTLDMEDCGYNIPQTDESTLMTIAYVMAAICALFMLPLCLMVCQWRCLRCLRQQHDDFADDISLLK
- MEASUREMENT DESCRIPTION: in vitro BACE inhibition assay (Primary BACE1 IC50)
- Assay type: biochemical
- TEST CONDITIONS: Tables 1 and 2; read-out: Primary BACE1 IC50
REPORTED PROPERTY: IC50

In: Endpoint output: IC50 of Cc1cc(C2(c3cncc(F)c3)N=C(N)N(C)C2=O)ccc1OC(F)F (stereo not shown) . Value?
Out: 150 nM

====

- MEASUREMENT DESCRIPTION: solubility (Sol)
- Assay type: physicochemical
- TEST CONDITIONS: Table 3
REPORTED PROPERTY: Sol

Use the examples below as a reference point.
Cc1cc(C2(c3cccc(F)c3)N=C(N)N(C)C2=O)ccc1OC(F)F (stereo not drawn)
Med
Cc1cc(C2(c3ccnc(F)c3)N=C(N)N(C)C2=O)ccc1OC(F)F (stereo not drawn)
Good
Cc1cc(C2(c3cccc(-c4cccnc4)c3)N=C(N)N(C)C2=O)ccc1OC(F)F (stereo not drawn)
Med
Cc1cc(C2(c3cncc(F)c3)N=C(N)N(C)C2=O)ccc1OC(F)F (stereo not drawn)
Good

Query molecule follows.
In: Endpoint output: Sol of CNCc1cccc(C2(c3ccc(OC(F)F)c(C)c3)N=C(N)N(C)C2=O)c1 (stereo not drawn) . Value?
Out: Good
